Molecular target: T1, ZFP SBS#1110 (synthetic)
T1 chain: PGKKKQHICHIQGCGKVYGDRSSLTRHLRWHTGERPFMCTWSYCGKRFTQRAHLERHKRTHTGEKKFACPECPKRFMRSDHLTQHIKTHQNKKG
Experiment: EMSA
Conditions: tags: MBP fusion
Outcome Measure: Kd (nM)
Kindly provide the numeric value in nM only, without the unit symbol.

Tell me the measured Kd of AGGGGAGCC (dsDNA) DNA 1: AGGGGAGCC DNA 2: GGCTCCCCT , please. 0.095
